Molecular target: T1, His-NinH wt (Bacteriophage lambda (cI857 Sam7), UniProt P03771 1-68, A15T)
T1 sequence: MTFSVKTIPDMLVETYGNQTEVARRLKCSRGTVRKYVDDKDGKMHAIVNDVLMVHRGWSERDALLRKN
Experiment: fluorescence anisotropy; Hill 1.985; dimer concentration; MST: PBS pH 7.4 + 0.05% Tween-20, 22 C; anisotropy: 6.7 mM Tris-HCl pH 8.0, 3.3 nM (so in the source) sodium acetate, 2 mM EDTA, 25 C; EMSA (32P): 50 mM Tris-HCl pH 8.0, 5 mM EDTA, 1 mM DTT, 5% glycerol, 100 ug/ml BSA, on ice; EMSA (Cy520): PBS pH 7.4, room temp
Settings: protein: recombinant; tags: N-His6; chain copies: 2; label: 3'-fluorescein (C6 linker) on strand 1; blunt
readout.type: pKd
Please keep in mind that pKd is minus log10 of the molar concentration; only the number is needed.

Inquiry: Form field: reported pKd of DS20 (o-FLU20/o-SS20) (dsDNA) DNA 1: TGGGTCAACGTGGGCAAAGA DNA 2: TCTTTGCCCACGTTGACCCA
Reply text: 7.37
